assaySummary: AUC (0 to t) in Beagle dog at 10 mg/kg, po measured up to 24 hrs by LC-MS/MS analysis
Type: ADME, organism-based, Canis lupus familiaris
Set-up: dose 10 mg/kg, time < 24 hrs, route po
assayConditions: in vivo
testReadout: AUC(0-t) at 24 h (ng·h/mL)

compound="Cc1ccccc1C1C(=O)N(C)c2cnc(Nc3ccc(S(N)(=O)=O)cc3)nc2N1C (stereo unspecified)" numericresult=4940

----------
assaySummary: Cmax in mouse at 1 mg/kg, iv measured up to 12 hrs by LC-MS/MS analysis
Format: ADME, organism-based
Set-up: time < 12 hrs, dose 1 mg/kg, route iv
assayConditions: in vivo
testReadout: Cmax (ng/mL)

molecule="Cc1ccccc1C1C(=O)N(C)c2cnc(Nc3ccc(S(N)(=O)=O)cc3)nc2N1C (stereo unspecified)" testreadout=Cmax numericresult=1240

----------
target: Serine/threonine-protein kinase 4 (Homo sapiens, UniProt Q13043)
Sequence (Q13043 whole entry): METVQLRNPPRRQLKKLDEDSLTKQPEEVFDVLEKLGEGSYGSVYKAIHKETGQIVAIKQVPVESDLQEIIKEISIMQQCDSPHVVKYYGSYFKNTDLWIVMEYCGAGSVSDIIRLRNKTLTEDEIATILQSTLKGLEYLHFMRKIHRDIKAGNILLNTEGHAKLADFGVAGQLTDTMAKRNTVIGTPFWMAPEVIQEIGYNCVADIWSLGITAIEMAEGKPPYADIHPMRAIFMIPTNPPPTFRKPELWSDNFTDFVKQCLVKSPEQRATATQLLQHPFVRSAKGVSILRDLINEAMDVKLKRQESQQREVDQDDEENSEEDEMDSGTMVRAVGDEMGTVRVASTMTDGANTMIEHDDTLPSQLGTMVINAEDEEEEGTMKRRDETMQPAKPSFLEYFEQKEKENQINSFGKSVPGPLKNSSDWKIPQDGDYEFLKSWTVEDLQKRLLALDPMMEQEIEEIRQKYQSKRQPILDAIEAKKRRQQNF
assaySummary: Inhibition of recombinant full length N-terminal GST -tagged human MST1 expressed in baculovirus infected Sf9 insect cells using KKSRGDYMTMQIG as substrate incubated for 1 hr in presence of ATP by ADP-Glo luminescent assay
testReadout: IC50 (nM)

compound="CN1C(=O)C(c2cccc(C(F)(F)F)c2)N(C)c2nc(Nc3ccc(S(N)(=O)=O)cc3)ncc21 (stereo not given)" testreadout=IC50 numericresult=2710
compound="CN1C(=O)C(CC2CC2)N(C)c2nc(Nc3ccc(S(N)(=O)=O)cc3)ncc21 (stereo not given)" testreadout=IC50 numericresult=211
compound="Cc1ccccc1C1C(=O)N(C)c2cnc(Nc3ccc(C(C)(C)C#N)cc3)nc2N1C (stereo not given)" testreadout=IC50 numericresult=153
compound="Cc1ccccc1C1C(=O)N(C)c2cnc(Nc3ccc(S(=O)(=O)NC4CC4)cc3)nc2N1C (stereo not given)" testreadout=IC50 numericresult=53
compound="Cc1ccc(F)cc1C1C(=O)N(C)c2cnc(Nc3ccc(S(N)(=O)=O)cc3)nc2N1C (stereo not given)" testreadout=IC50 numericresult=168

----------
assaySummary: Half life in mouse at 1 mg/kg, iv measured up to 12 hrs by LC-MS/MS analysis
Assay type: ADME, organism-based
assayConditions: in vivo
testReadout: half-life (h)

molecule="Cc1ccccc1C1C(=O)N(C)c2cnc(Nc3ccc(S(N)(=O)=O)cc3)nc2N1C (stereo unspecified)" testreadout=half-life numericresult=1.7

----------
target: Serine/threonine-protein kinase 4 (Homo sapiens)
assaySummary: Inhibition of recombinant full length N-terminal GST -tagged human MST1 expressed in baculovirus infected Sf9 insect cells using KKSRGDYMTMQIG as substrate incubated for 1 hr in presence of ATP by ADP-Glo luminescent assay
pIC50: −log10 of the molar value.
Quick reference: pIC50 of the listed items.
testReadout: pIC50

molecule=CN1C(=O)c2sccc2N(C)c2nc(Nc3ccc(S(N)(=O)=O)cc3)ncc21 target="Serine/threonine-protein kinase 4 (Homo sapiens)" numericresult=6.98
molecule="CN1C(=O)C(c2ccccc2Cl)N(C)c2nc(Nc3ccc(S(N)(=O)=O)cc3)ncc21 (stereo not drawn)" target="Serine/threonine-protein kinase 4 (Homo sapiens)" numericresult=6.89
molecule="CNS(=O)(=O)c1ccc(Nc2ncc3c(n2)N(C)C(c2ccccc2C)C(=O)N3C)cc1 (stereo not drawn)" target="Serine/threonine-protein kinase 4 (Homo sapiens)" numericresult=6.98

Just for reference, ChEMBL document CHEMBL5137114 is where these values come from.
